Give measured inhibition at 1 µM for each item. Keep answers brief.
- assayed.target: FLT3wt (Homo sapiens (Human), UniProt P36888)
- Sequence (P36888 27-993): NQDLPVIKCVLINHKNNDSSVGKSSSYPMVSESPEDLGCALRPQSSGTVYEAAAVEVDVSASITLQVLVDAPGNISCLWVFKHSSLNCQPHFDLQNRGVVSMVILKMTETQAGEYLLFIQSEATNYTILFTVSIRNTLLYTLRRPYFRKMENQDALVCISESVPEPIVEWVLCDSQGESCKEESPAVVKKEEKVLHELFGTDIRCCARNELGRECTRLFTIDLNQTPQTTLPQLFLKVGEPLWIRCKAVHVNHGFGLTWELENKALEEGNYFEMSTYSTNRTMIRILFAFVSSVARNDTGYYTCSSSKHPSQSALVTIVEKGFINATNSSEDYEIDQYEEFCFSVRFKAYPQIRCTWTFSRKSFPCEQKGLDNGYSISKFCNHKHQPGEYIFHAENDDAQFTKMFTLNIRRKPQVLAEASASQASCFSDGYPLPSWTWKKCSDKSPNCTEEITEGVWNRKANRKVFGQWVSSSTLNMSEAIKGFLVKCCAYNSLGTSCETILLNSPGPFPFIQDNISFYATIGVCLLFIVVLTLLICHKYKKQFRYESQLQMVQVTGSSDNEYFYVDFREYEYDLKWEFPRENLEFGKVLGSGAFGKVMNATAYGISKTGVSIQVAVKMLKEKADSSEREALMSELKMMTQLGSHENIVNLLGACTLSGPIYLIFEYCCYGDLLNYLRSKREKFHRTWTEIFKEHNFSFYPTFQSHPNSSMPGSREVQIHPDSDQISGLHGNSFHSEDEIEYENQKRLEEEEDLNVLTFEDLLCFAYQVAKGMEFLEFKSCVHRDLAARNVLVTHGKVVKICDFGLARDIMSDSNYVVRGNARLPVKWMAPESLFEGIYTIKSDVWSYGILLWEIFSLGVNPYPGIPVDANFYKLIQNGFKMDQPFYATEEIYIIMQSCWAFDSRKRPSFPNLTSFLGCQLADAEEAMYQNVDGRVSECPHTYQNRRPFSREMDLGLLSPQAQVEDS
- test.summary: ADP-Glo Kinase Assay, Flt3 wt
- Type: biochemical
- stated.conditions: 1 μM compound; read-out: Flt3wt % INH (1 μM)
Answers are plain numbers, in %.

CC(C)n1c(NCCCN)nc2c([N+](=O)[O-])c(Br)c(Br)cc21 [Example 1L] = 21

# next molecule below
Quick one: inhibition at 1 µM of CC(C)Cn1c(N2CCNCC2)nc2c([N+](=O)[O-])c(Br)c(Br)cc21 [Example 1N] ?
55

###

Give measured inhibition at 1 µM for each item. Keep answers brief.
- assayed.target: Pim-3 (Homo sapiens (Human))
- test.summary: ADP-Glo Kinase Assay, Pim-3
- Format: biochemical
- stated.conditions: 1 μM compound; read-out: Pim-3 % INH (1 μM)
Structures can show the parent of a compound that is named as a salt.
Answers are plain numbers, in %.

CC(C)n1c(N2CCN[C@H](C)C2)nc2c([N+](=O)[O-])c(Br)c(Br)cc21 [Example 22AA] = 88
CCn1c(NCC(O)CN)nc2c([N+](=O)[O-])c(Br)c(Br)cc21 (stereo not shown) [Example 1G] = 57
CC(C)n1c(N2CCNCC2)nc2c([N+](=O)[O-])c(Br)c(Br)cc21 [Example 2A, hydrochloride] = 89

Quick one: inhibition at 1 µM of CC(C)n1c(N2CCCC(O)C2)nc2c([N+](=O)[O-])c(Br)c(Br)cc21 (stereo not shown) [Example 22G] ?
87
